Source listed as ChEMBL document CHEMBL2346500.

- system: UniProtKB Q9UBN7
- Sequence (Q9UBN7 whole entry): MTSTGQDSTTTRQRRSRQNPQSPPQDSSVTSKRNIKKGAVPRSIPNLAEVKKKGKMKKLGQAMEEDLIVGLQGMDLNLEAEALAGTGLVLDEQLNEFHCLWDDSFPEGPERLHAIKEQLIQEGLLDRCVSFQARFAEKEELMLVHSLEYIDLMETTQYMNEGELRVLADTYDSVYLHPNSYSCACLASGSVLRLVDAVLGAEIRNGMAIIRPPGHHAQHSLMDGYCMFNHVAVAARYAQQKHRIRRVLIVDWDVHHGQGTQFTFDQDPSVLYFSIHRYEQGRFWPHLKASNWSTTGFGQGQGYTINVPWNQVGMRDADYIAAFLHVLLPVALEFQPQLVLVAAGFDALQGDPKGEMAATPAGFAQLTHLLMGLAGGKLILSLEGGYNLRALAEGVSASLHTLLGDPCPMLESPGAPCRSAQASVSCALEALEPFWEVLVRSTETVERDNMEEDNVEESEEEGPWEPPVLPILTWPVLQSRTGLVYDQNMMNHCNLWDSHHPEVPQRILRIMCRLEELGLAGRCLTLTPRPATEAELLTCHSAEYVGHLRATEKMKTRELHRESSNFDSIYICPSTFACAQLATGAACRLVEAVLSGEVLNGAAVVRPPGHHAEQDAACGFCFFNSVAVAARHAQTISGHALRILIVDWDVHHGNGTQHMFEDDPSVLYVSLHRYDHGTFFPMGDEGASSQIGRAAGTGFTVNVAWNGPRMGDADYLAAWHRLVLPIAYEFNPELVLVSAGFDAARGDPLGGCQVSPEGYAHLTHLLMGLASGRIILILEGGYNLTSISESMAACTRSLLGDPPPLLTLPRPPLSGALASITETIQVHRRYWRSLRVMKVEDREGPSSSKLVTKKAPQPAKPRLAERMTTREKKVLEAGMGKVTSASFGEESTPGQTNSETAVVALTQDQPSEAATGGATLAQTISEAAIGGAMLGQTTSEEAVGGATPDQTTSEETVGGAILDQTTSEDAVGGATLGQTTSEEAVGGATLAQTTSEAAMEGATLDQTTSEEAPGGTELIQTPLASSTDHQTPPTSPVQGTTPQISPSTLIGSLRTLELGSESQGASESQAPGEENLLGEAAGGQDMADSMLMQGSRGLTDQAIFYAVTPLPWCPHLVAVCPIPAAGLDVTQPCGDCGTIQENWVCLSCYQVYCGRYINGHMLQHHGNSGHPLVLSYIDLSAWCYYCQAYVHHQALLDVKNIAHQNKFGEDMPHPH
- protocol-description: Inhibition of recombinant HDAC6 (unknown origin) after 10 mins by fluorimetric analysis
parameter: pIC50
Reminder that pIC50 means the negative base-10 logarithm of the concentration expressed in mol/L.

Just so you know, measured pIC50 for C[C@H]1C=C2C=C[C@H](C)[C@H](CC[C@@H]3C[C@@H](O[Si](C)(C)C(C)(C)C)CC(=O)O3)[C@H]2[C@@H](OC(=O)NCc2ccc(-c3cn(CCCCCCC(=O)NO)nn3)cc2)C1 came out at 7.47

Just so you know, measured pIC50 for CCC(C)(C)C(=O)O[C@H]1C[C@@H](C)C=C2C=C[C@H](C)[C@H](CC[C@@H](O)C[C@@H](O)CC(=O)NO)[C@H]21 came out at 7.16

Just so you know, measured pIC50 for C[C@H]1C=C2C=C[C@H](C)[C@H](CC[C@@H]3C[C@@H](O[Si](C)(C)C(C)(C)C)CC(=O)O3)[C@H]2[C@@H](OC(=O)NCCCCCCC(=O)NO)C1 came out at 6.85

Just so you know, measured pIC50 for CC(C)c1c(C(=O)Nc2ccccc2)c(-c2ccccc2)c(-c2ccc(F)cc2)n1CC[C@@H](O)C[C@@H](O)CC(=O)NO came out at 7.06

Just so you know, measured pIC50 for CC[C@H](C)C(=O)O[C@H]1C[C@@H](C)C=C2C=C[C@H](C)[C@H](CC[C@@H](O)C[C@@H](O)CC(=O)NO)[C@H]21 came out at 7.29

Just so you know, measured pIC50 for C[C@H]1C=C2C=C[C@H](C)[C@H](CC[C@@H]3C[C@@H](O[Si](C)(C)C(C)(C)C)CC(=O)O3)[C@H]2[C@@H](OC(=O)Nc2ccc(-c3cn(CCCCCCC(=O)NO)nn3)cc2)C1 came out at 6.89

* * *

For each of the molecules below, state its IC50.
- system: 3-hydroxy-3-methylglutaryl-coenzyme A reductase (Homo sapiens, UniProt P04035)
- Sequence (P04035 whole entry): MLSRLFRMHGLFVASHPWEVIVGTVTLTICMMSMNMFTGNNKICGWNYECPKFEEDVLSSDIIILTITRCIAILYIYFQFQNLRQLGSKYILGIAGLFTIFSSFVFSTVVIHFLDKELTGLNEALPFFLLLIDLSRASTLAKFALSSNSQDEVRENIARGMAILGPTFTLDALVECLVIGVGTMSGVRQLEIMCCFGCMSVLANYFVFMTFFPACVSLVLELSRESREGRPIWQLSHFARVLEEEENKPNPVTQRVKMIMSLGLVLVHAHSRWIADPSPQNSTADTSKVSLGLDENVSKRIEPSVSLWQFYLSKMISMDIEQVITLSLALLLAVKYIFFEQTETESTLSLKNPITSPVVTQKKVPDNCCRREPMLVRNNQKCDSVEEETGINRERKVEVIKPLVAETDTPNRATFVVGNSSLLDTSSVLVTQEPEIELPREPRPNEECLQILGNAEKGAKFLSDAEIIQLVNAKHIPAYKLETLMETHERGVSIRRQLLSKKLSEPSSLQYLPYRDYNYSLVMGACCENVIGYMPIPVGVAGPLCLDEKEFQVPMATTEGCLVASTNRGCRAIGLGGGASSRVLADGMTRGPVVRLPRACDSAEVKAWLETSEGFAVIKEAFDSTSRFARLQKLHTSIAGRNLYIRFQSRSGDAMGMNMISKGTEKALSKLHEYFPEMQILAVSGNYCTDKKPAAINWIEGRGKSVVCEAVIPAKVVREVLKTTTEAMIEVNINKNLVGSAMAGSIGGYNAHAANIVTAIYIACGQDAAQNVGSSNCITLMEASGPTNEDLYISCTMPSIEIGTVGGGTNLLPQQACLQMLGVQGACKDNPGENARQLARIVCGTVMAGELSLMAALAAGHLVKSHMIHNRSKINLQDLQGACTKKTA
- protocol-description: Inhibition of HMG-CoA reductase in human A549 cells after 5 mins by spectrophotometric analysis
Answer with a number only, understood to be in µM.

Just so you know, measured IC50 for CCC(C)(C)C(=O)O[C@H]1C[C@@H](C)C=C2C=C[C@H](C)[C@H](CC[C@@H](O)C[C@@H](O)CC(=O)NO)[C@H]21 came out at 7.9

Just so you know, measured IC50 for CC(C)c1nc(N(C)S(C)(=O)=O)nc(-c2ccc(F)cc2)c1/C=C/[C@@H](O)C[C@@H](O)CC(=O)NO came out at 14.9

Just so you know, measured IC50 for CC[C@H](C)C(=O)O[C@H]1C[C@@H](C)C=C2C=C[C@H](C)[C@H](CC[C@@H](O)C[C@@H](O)CC(=O)NO)[C@H]21 came out at 15.9

Just so you know, measured IC50 for CC(C)c1c(C(=O)Nc2ccccc2)c(-c2ccccc2)c(-c2ccc(F)cc2)n1CC[C@@H](O)C[C@@H](O)CC(=O)NO came out at 5.7

* * *

- system: Histone deacetylase 1 (Homo sapiens, UniProt Q13547)
- Sequence (Q13547 whole entry): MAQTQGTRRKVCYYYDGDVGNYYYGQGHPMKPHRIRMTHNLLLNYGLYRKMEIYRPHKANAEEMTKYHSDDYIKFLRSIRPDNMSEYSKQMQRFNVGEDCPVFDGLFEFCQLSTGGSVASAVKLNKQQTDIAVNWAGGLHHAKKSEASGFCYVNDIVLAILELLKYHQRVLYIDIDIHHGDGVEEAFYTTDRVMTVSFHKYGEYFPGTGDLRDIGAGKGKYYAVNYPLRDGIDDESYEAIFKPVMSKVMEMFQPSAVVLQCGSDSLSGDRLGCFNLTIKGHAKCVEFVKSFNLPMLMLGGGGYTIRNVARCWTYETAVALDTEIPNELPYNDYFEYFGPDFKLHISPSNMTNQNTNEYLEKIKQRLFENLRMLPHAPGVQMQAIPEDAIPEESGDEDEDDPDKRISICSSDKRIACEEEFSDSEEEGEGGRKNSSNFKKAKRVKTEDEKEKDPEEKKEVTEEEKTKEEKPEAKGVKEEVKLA
- protocol-description: Inhibition of recombinant HDAC1 (unknown origin) after 10 mins by fluorimetric analysis
parameter: IC50

Just so you know, measured IC50 for C[C@H]1C=C2C=C[C@H](C)[C@H](CC[C@@H]3C[C@@H](O[Si](C)(C)C(C)(C)C)CC(=O)O3)[C@H]2[C@@H](OC(=O)NCCCCCCC(=O)NO)C1 came out at 122 nM

Just so you know, measured IC50 for CC(C)c1c(C(=O)Nc2ccccc2)c(-c2ccccc2)c(-c2ccc(F)cc2)n1CC[C@@H](O)C[C@@H](O)CC(=O)NO came out at 123 nM

Just so you know, measured IC50 for C[C@H]1C=C2C=C[C@H](C)[C@H](CC[C@@H]3C[C@@H](O[Si](C)(C)C(C)(C)C)CC(=O)O3)[C@H]2[C@@H](OC(=O)Nc2ccc(-c3cn(CCCCCCC(=O)NO)nn3)cc2)C1 came out at 159 nM

Just so you know, measured IC50 for C[C@H]1C=C2C=C[C@H](C)[C@H](CC[C@@H]3C[C@@H](O[Si](C)(C)C(C)(C)C)CC(=O)O3)[C@H]2[C@@H](OC(=O)NCc2ccc(-c3cn(CCCCCCC(=O)NO)nn3)cc2)C1 came out at 125 nM

Just so you know, measured IC50 for CCC(C)(C)C(=O)O[C@H]1C[C@@H](C)C=C2C=C[C@H](C)[C@H](CC[C@@H](O)C[C@@H](O)CC(=O)NO)[C@H]21 came out at 63.4 nM

Just so you know, measured IC50 for CC[C@H](C)C(=O)O[C@H]1C[C@@H](C)C=C2C=C[C@H](C)[C@H](CC[C@@H](O)C[C@@H](O)CC(=O)NO)[C@H]21 came out at 64.8 nM
